target_desc: T1, Link_TSG6 (recombinant Link module from human TSG-6) (human, UniProt P98066 36-133)
T1 construct: Link module of human TSG-6 (TNF-stimulated gene/protein 6); residues numbered as in the pre-protein; also called TSG-6 Link module
experiment_notes: SPR; Link_TSG6 amine-coupled to a C1 chip (800–1000 RU), chemokine as analyte; BIAcore 3000; 10 mM HEPES, 150 mM NaCl, 0.05% Tween 20, pH 7.4; 40 μl/min; 1:1 Langmuir model; apparent affinities
condition_info: both partners purified
pKd: −log10 of the molar value.
quantity_measured: pKd

CCL21 (ligand, UniProt O00585 24-134, looked up, chemokine CCL21; source: E. coli, purified) SDGGAQDCCLKYSQRKIPAKVVRSYRKQEPSLGCSIPAILFLPRKRSQAELCADPKELWVQQLMQHLDKTPSPQKPAQGCRKDRGASKTGKKGKGSKGCKRTERSQTPKGP: 8.32
CCL27 K25A (ligand, UniProt Q9Y4X3 25-112, looked up, chemokine CCL27 with K25A; also called CCL27 K25A mutant; source: E. coli, purified) FLLPPSTACCTQLYRKPLSDKLLRAVIQVELQEADGDCHLQAFVLHLAQRSICIHPQNPSLSQWFEHQERKLHGTLPKLNFGMLRKMG: 6.12
CXCL11 (ligand, UniProt O14625 22-94, looked up, chemokine CXCL11; CXCL11 is not in the methods' list of chemokines made in E. coli) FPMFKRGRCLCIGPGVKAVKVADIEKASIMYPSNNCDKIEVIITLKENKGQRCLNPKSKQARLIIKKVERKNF: 8.28

A: CCL19 (ligand, UniProt Q99731 22-98, looked up, chemokine CCL19; source: E. coli, purified) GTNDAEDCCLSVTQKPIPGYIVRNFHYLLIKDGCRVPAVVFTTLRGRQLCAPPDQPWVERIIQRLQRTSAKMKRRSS
B: CCL27 (ligand, UniProt Q9Y4X3 25-112, looked up, chemokine CCL27; source: E. coli, purified) FLLPPSTACCTQLYRKPLSDKLLRKVIQVELQEADGDCHLQAFVLHLAQRSICIHPQNPSLSQWFEHQERKLHGTLPKLNFGMLRKMG
Query string: Please compare: A and B . Report which one has the smaller pKd value. Could you answer with the label of the item you picked?
Result string: B
